Cited source for all entries: patent US20250011363A1

# study system: acetylcholine receptor
# experiment notes: SPR, receptor immobilised on chip, peptide at 10 uM
value kind: Binding affinity (RU)

See these solved cases before continuing.
{"columns": ["binder", "Binding affinity (RU)"],
 "data": [
  ["RIEHKR [6mer-2-938]", 40],
  ["KMCEKK [6mer-2-988]", 41]
]}

[I] KDNVRR [6mer-2-922]
[II] KFKARK [6mer-2-958]
Endpoint returns whichever of I and II has the numerically higher Binding affinity (RU). Write the label of whichever entry you select.
I
